Target: PTP99A D1 (Drosophila melanogaster)
Sequence (P35832 450-756): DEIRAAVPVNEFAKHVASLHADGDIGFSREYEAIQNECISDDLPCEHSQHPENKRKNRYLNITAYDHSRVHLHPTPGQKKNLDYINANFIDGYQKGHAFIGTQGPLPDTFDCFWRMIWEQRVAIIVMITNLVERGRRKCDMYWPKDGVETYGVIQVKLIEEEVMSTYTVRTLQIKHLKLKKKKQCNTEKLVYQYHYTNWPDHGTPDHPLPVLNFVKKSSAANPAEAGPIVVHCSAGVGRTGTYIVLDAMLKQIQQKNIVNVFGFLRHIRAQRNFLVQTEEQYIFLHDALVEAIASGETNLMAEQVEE
Experiment: PNC binding by fluorescence quenching, PTP99A D1
Details: 5.0 µM protein, 25 mM citrate pH 6.5; fluorescence quenching 350 nm; single site model
pKd: −log10 of the molar value. Where a name gives a salt, the structure may show the parent alone.
Observable: pKd

> print(dat)
                                   compound  endpoint.result
1  O=[N+]([O-])c1ccc(O)c(OS(=O)(=O)O)c1 [PNC, 2-hydroxy-5-nitrophenyl sulfate]             3.81

====

Molecular target: PTP99A D2 (Drosophila melanogaster)
Assay: PNC binding by fluorescence quenching, PTP99A D2
Details: 5.0 µM protein, 25 mM citrate pH 6.5; fluorescence quenching 350 nm; single site model
pKd: −log10 of the molar value. Structures can show the parent of a compound that is named as a salt.
Observable: pKd

> print(dat)
                                   compound  observable  endpoint.result
1  O=[N+]([O-])c1ccc(O)c(OS(=O)(=O)O)c1 [PNC, 2-hydroxy-5-nitrophenyl sulfate]         pKd             3.15
